Where do these numbers come from? They come from PubChem BioAssay (NCI).

# Tested on: COLO 205 colon
# protocolText: NCI-60 one-dose screen, 48 h
# settings: 10 µM unless noted
Compounds without any hit were thinned out: in the full panel of roughly 83,000, 20% have a hit. Active and inactive are the calls of the source. How the source made its calls: active means growth percent below 10; inactive means the rest.
// one of 1.0 (active), 0.0 (inactive), no free text

Enquiry: Please let me know the test result on file for Cc1c(F)cc(C(N)=O)cc1NCC(=O)Nc1ccc([N+](=O)[O-])cc1 .
Return: 0.0

Enquiry: // same read-out, input: Nc1ncc(-c2ccc3ncnc(N4CCc5cc(F)c(F)cc54)c3c2)cn1
Return: 0.0

Enquiry: Another molecule: O=S(=O)(Oc1ccc(-c2nnc(Nc3ccccc3)s2)cc1)C(F)(F)C(F)(F)C(F)(F)C(F)(F)C(F)(F)C(F)(F)F
Return: 0.0

Enquiry: Would you mind doing Cc1nn(-c2ccccc2)c2ncnc(N/N=C/c3cccc(O)c3)c12 as well?
Return: 0.0

Enquiry: Please do the same for N#Cc1c(-c2cccs2)cc(-c2cnccn2)nc1SCC(=O)Nc1ccc(Br)cc1 as well.
Return: 0.0

Enquiry: Input Cc1ccc(-n2c(/C=C3\C(=O)Nc4ccccc43)ccc2CO)cc1
Return: 0.0

Enquiry: And then N#Cc1ccccc1Cn1c2nc(=N)c3ccccc3c-2nc2ccccc21 , what is it?
Return: 1.0

Enquiry: Then this molecule: N#Cc1cccc(/C(N)=N/C(N)=N/c2nc3ccccc3s2)c1
Return: 0.0

Enquiry: Consider next the molecule Cc1cc(-c2ccc(Cl)cc2)n(Cc2nnc(SCC(=O)Nc3ccc(S(N)(=O)=O)cc3)n2-c2ccc([N+](=O)[O-])cc2)n1 in the same way.
Return: 0.0

Enquiry: What do you get for O=C(NNc1nc2cc(F)ccc2n2c(CN3CCCC3)ccc12)c1cnccn1 ?
Return: 1.0

Enquiry: Another: CCC(NC(c1cc2cccc3ccc4cccc1c4c32)c1nnnn1C(C)(C)C)C1CCCCC1 (configuration not stated)
Return: 0.0

Enquiry: Now this one: CCCCCCCn1cc2c(N[C@H](C)c3ccccc3)ncnc2n1
Return: 0.0

Enquiry: Can you check CN(C)CCCOc1ccc2c(c1)CN(C(=O)c1cc(C(=O)N3Cc4cccc(F)c4C3)ccc1O)C2 next?
Return: 0.0

Enquiry: Same for COc1cccc(/C=C(/C)c2ccc3cccc(OC)c3[o+]2)c1O
Return: 0.0

Enquiry: Cool, now Cn1ccnc1C(=O)/C=C/c1ccc(CNC(=O)c2c(F)c(F)c(F)c(F)c2F)cc1
Return: 0.0

Enquiry: Lookup C=CC(=O)N1CCC=C(c2cc3c(N[C@H](C)c4ccccc4)ncnc3[nH]2)C1
Return: 0.0

Enquiry: Also, O=C(CSc1nc2ccccc2c(=O)n1-c1ccc(Cl)cc1)N/N=C/c1ccc(N2CCCCC2)cc1 please.
Return: 0.0

Enquiry: Likewise for C=CCn1c(-c2nc3ccc(C(=C(C#N)C#N)c4ccccc4)cc3[nH]2)cc2cc(Br)ccc21 ?
Return: 0.0

Enquiry: Now the same for COC(=O)c1[nH]nc2c1C1(C(=O)c3cccc4cccc1c34)C(C#N)=C(N)O2 (configuration not stated)
Return: 0.0

Enquiry: Next up: CN1c2ccccc2Sc2cc(C=C(C#N)C#N)ccc21
Return: 0.0

Enquiry: Next entry: O=C(Cn1c(-c2ccccc2)nc2cc(Cl)c(Cl)cc21)N=Nc1c(O)[nH]c2ccc(Cl)cc12
Return: 0.0

Enquiry: Now consider COc1ccc([C@H]2[C@H](O)C(=O)N2c2cc(OC)c(OC)c(OC)c2)cc1F .
Return: 1.0

Enquiry: Param item: COc1ccc(/C=C(\C#N)C(=O)N2c3ccccc3Sc3ccc(SC)cc32)cc1F
Return: 0.0

Enquiry: Check CCn1c(SCC(=O)Nc2cccc(C(=O)/C=C/c3ccccc3Cl)c2)nc2ccccc2c1=O too.
Return: 0.0

Enquiry: Same for O=C(O)c1cn(C2CC2)c2cc(N3CCN(C(=O)CN4C(=O)CSC4=O)CC3)c(F)cc2c1=O
Return: 0.0

Enquiry: Try the molecule CS(=O)(=O)c1ccc(-c2nn(-c3ccccc3)cc2/C=N/NC(=O)c2nc(N)n[nH]2)cc1
Return: 0.0

Enquiry: Another: CC(=O)C1=C(C)NC(NNC(N)=S)=NC1c1ccccc1 (configuration not stated)
Return: 0.0

Enquiry: Try this molecule next: O=C(c1ccc(O)c(C(=O)N2Cc3ccc(OCCC[P+](c4ccccc4)(c4ccccc4)c4ccccc4)cc3C2)c1)N1Cc2cccc(F)c2C1
Return: 0.0

Enquiry: Input COc1cccc(N2CCN(c3ncnc4c3[nH]c3ccc(F)cc34)C[C@H]2C)c1
Return: 0.0

Enquiry: Now consider COc1ccccc1NCc1cccn1Cc1ccc(F)cc1 and answer again.
Return: 0.0

Enquiry: Next molecule up: C=C(C)[C@@H]1CC[C@]2(COC)CC[C@]3(C)[C@H](CC[C@@H]4[C@@]5(C)CCCNC(C)(C)[C@@H]5CC[C@]43C)[C@@H]12
Return: 1.0

Enquiry: Repeat with N#Cc1cccc(CN2CCC3=C(C2)C(=O)N(Cc2ccc(Cl)cc2)C2=NCCCN23)c1
Return: 1.0

Enquiry: Please answer likewise for CCCCCc1ccc(S(=O)(=O)Nc2cccc(-c3csc(NC(=O)CCCCCN4CCN(CCO)CC4)n3)c2)cc1
Return: 0.0

Enquiry: Please do the same for C#C[C@]1(O)CC[C@H]2[C@@H]3CC=C4c5sc(-c6cccc(O)c6)nc5CC[C@]4(C)[C@H]3CC[C@@]21C as well.
Return: 1.0

Enquiry: Also need CCC(CC)N1C(=O)/C(=c2\sc3n(c2=O)NC2C(N=3)N(CC)C(=O)N2CC)c2ccccc21 (configuration not stated) , thanks.
Return: 0.0

Enquiry: Then this molecule: CC[C@@H](CO)Nc1ccc2ncc(C#Cc3cncc(C(=O)Nc4ccc(CN5CCN(C)CC5)c(C(F)(F)F)c4)c3)n2n1
Return: 1.0

Enquiry: // repeat for CCCCCc1ccc(S(=O)(=O)Nc2cccc(-c3csc(NCCN4CCN(C)CC4)n3)c2)cc1 and report
Return: 0.0
